- Test system: 475296-252-R-J1-PDC spheroid viability
- method-description: Anticancer human tumor 475296-252-R-J1-PDC patient-derived rectal carcinoma cell line growth inhibition [PI3K]
- test-conditions: second compound 0.01 µM; first compound 3.16 µM; stronger effect = lower value; spheroids with HUVEC and MSC
Measured viability, T/C, listed per entry.
All answers are understood in %, so give the number only.

compound="CC1(C)CCC(Nc2ncc(C(F)(F)F)c(-c3c[nH]c4c(P(C)(C)=O)c(C#N)ccc34)n2)CN1 (stereo not given) + COc1c(OCCCN2CCOCC2)ccc2c3n(c(=NC(=O)c4cnc(N)nc4)nc12)CCN3" target_entity="475296-252-R-J1-PDC spheroid viability" measure_name="viability, T/C" readout_value=140
compound="CCCS(=O)(=O)Nc1ccc(F)c(C(=O)c2c[nH]c3ncc(-c4ccc(Cl)cc4)cc23)c1F + COc1c(OCCCN2CCOCC2)ccc2c3n(c(=NC(=O)c4cnc(N)nc4)nc12)CCN3" target_entity="475296-252-R-J1-PDC spheroid viability" measure_name="viability, T/C" readout_value=94.2
compound="C#Cc1c(F)ccc2cc(O)cc(-c3ncc4c(N5CC6CCC(C5)N6)nc(OCC56CCCN5CC(F)C6)nc4c3F)c12 (stereo not given) + COc1c(OCCCN2CCOCC2)ccc2c3n(c(=NC(=O)c4cnc(N)nc4)nc12)CCN3" target_entity="475296-252-R-J1-PDC spheroid viability" measure_name="viability, T/C" readout_value=48.9
compound="CC(C)NCC(C(=O)N1CCN(c2ncnc3c2C(C)CC3O)CC1)c1ccc(Cl)cc1 (stereo not given) + COc1c(OCCCN2CCOCC2)ccc2c3n(c(=NC(=O)c4cnc(N)nc4)nc12)CCN3" target_entity="475296-252-R-J1-PDC spheroid viability" measure_name="viability, T/C" readout_value=65.6

// switching to the query compound
Input line: State the recorded viability, T/C for this entry: CC(Cn1ccc(-c2ccc(C#N)c(Cl)c2)n1)NC(=O)c1cc(C(C)O)[nH]n1 (stereo not given) + COc1c(OCCCN2CCOCC2)ccc2c3n(c(=NC(=O)c4cnc(N)nc4)nc12)CCN3
Output line: 102

====

Measured IC50, listed per entry.
- Test system: 475296-252-R-J1-PDC spheroid viability
- method-description: Anticancer human tumor 475296-252-R-J1-PDC cell line growth inhibition [PI3K];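 also: spheroids exposed to agents for seven days before readout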
- test-conditions: curve of first compound; second compound 0.0316 µM; spheroids with HUVEC and MSC

# example entries with known answers
molecule="CC1(C)CCC(CN2CCN(c3ccc(C(=O)NS(=O)(=O)c4ccc(NCC5CCOCC5)c([N+](=O)[O-])c4)c(Oc4cnc5[nH]ccc5c4)c3)CC2)=C(c2ccc(Cl)cc2)C1 + COc1c(OCCCN2CCOCC2)ccc2c3n(c(=NC(=O)c4cnc(N)nc4)nc12)CCN3" measure_name=IC50 readout_value="> 10 µM"
molecule="CC(Cn1ccc(-c2ccc(C#N)c(Cl)c2)n1)NC(=O)c1cc(C(C)O)[nH]n1 (stereo unspecified) + COc1c(OCCCN2CCOCC2)ccc2c3n(c(=NC(=O)c4cnc(N)nc4)nc12)CCN3" measure_name=IC50 readout_value="> 10 µM"
molecule="CC(Cn1ccc(-c2ccc(C#N)c(Cl)c2)n1)NC(=O)c1cc(C(C)O)[nH]n1 (stereo unspecified) + CC(Nc1ccc2c(c1)OCCn1cc(N3C(=O)OCC3C(F)F)nc1-2)C(N)=O" measure_name=IC50 readout_value="> 10 µM"

Input line: State the recorded IC50 for this entry: Cn1cnc2c(F)c(Nc3ccc(Br)cc3Cl)c(C(=O)NOCCO)cc21 + CC(Nc1ncnc2nc[nH]c12)c1cc2cccc(Cl)c2c(=O)n1-c1ccccc1
Output line: > 3 µM

Input line: Same question for CCCS(=O)(=O)Nc1ccc(F)c(C(=O)c2c[nH]c3ncc(-c4ccc(Cl)cc4)cc23)c1F + CC(Nc1ncnc2nc[nH]c12)c1cc2cccc(Cl)c2c(=O)n1-c1ccccc1 please.
Output line: > 10 µM

Input line: Same question for C#Cc1c(F)ccc2cc(O)cc(-c3ncc4c(N5CC6CCC(C5)N6)nc(OCC56CCCN5CC(F)C6)nc4c3F)c12 (stereo unspecified) + CC(Nc1ncnc2nc[nH]c12)c1cc2cccc(Cl)c2c(=O)n1-c1ccccc1 please.
Output line: > 10 µM

Input line: Same question for C=CC(=O)N1CCN(c2nc(=O)n(-c3c(C)ccnc3C(C)C)c3nc(-c4c(O)cccc4F)c(F)cc23)C(C)C1 (stereo unspecified) + Cc1nc(NC(=O)N2CCCC2C(N)=O)sc1-c1ccnc(C(C)(C)C(F)(F)F)c1 please.
Output line: > 10 µM

Input line: Same question for CC1(C)CCC(Nc2ncc(C(F)(F)F)c(-c3c[nH]c4c(P(C)(C)=O)c(C#N)ccc34)n2)CN1 (stereo unspecified) + Cc1nc(NC(=O)N2CCCC2C(N)=O)sc1-c1ccnc(C(C)(C)C(F)(F)F)c1 please.
Output line: > 10 µM

Input line: Same question for Cn1ncnc1[C@H]1c2n[nH]c(=O)c3cc(F)cc(c23)N[C@@H]1c1ccc(F)cc1 + COc1c(OCCCN2CCOCC2)ccc2c3n(c(=NC(=O)c4cnc(N)nc4)nc12)CCN3 please.
Output line: > 0.1 µM

Input line: Same question for Cn1ncnc1[C@H]1c2n[nH]c(=O)c3cc(F)cc(c23)N[C@@H]1c1ccc(F)cc1 + CC(Nc1ncnc2nc[nH]c12)c1cc2cccc(Cl)c2c(=O)n1-c1ccccc1 please.
Output line: > 0.1 µM

Input line: Same question for CC(C)NCC(C(=O)N1CCN(c2ncnc3c2C(C)CC3O)CC1)c1ccc(Cl)cc1 (stereo unspecified) + CC(Nc1ccc2c(c1)OCCn1cc(N3C(=O)OCC3C(F)F)nc1-2)C(N)=O please.
Output line: > 10 µM

====

- Test system: 475296-252-R-J1-PDC spheroid viability
- method-description: Anticancer human tumor 475296-252-R-J1-PDC cell line growth inhibition [PI3K];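 also: spheroids exposed to agents for seven days before readout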
- test-conditions: second compound 0.01 µM; first compound 1 µM; stronger effect = lower value; spheroids with HUVEC and MSC
- Source text: Combinatorial screen of targeted agents with the PI3K inhibitors inavolisib, alpelisib, duvelisib, and copanlisib in multi-cell type tumor spheroids A high-throughput screen of multi-cell type tumor spheroids was designed to identify active combinations of targeted small molecules and PI3K pathway inhibitors. […] Compounds. […] If the clinical Cmax for an agent had not been determined, the highest concentration tested was 10 microM. […]
Label key: label 1 means viability, T/C under 90%; label 0 means viability, T/C of 90% or more.

Worked cases, answers included:
compound="CC1(C)CCC(Nc2ncc(C(F)(F)F)c(-c3c[nH]c4c(P(C)(C)=O)c(C#N)ccc34)n2)CN1 (stereo not given) + COc1c(OCCCN2CCOCC2)ccc2c3n(c(=NC(=O)c4cnc(N)nc4)nc12)CCN3" category_label="label 0"
compound="C#Cc1c(F)ccc2cc(O)cc(-c3ncc4c(N5CC6CCC(C5)N6)nc(OCC56CCCN5CC(F)C6)nc4c3F)c12 (stereo not given) + COc1c(OCCCN2CCOCC2)ccc2c3n(c(=NC(=O)c4cnc(N)nc4)nc12)CCN3" category_label="label 1"
compound="C[C@@H](NC(=O)c1ncnc(N)c1Cl)c1ncc(C(=O)Nc2cc(C(F)(F)F)c(Cl)cn2)s1 + CC(Nc1ccc2c(c1)OCCn1cc(N3C(=O)OCC3C(F)F)nc1-2)C(N)=O" category_label="label 0"
compound="CCCS(=O)(=O)Nc1ccc(F)c(C(=O)c2c[nH]c3ncc(-c4ccc(Cl)cc4)cc23)c1F + COc1c(OCCCN2CCOCC2)ccc2c3n(c(=NC(=O)c4cnc(N)nc4)nc12)CCN3" category_label="label 1"
compound="CC(C)NCC(C(=O)N1CCN(c2ncnc3c2C(C)CC3O)CC1)c1ccc(Cl)cc1 (stereo not given) + COc1c(OCCCN2CCOCC2)ccc2c3n(c(=NC(=O)c4cnc(N)nc4)nc12)CCN3" category_label="label 1"
compound="C[C@@H](NC(=O)c1ncnc(N)c1Cl)c1ncc(C(=O)Nc2cc(C(F)(F)F)c(Cl)cn2)s1 + COc1c(OCCCN2CCOCC2)ccc2c3n(c(=NC(=O)c4cnc(N)nc4)nc12)CCN3" category_label="label 1"

Input line: Given CCCS(=O)(=O)Nc1ccc(F)c(C(=O)c2c[nH]c3ncc(-c4ccc(Cl)cc4)cc23)c1F + CC(Nc1ccc2c(c1)OCCn1cc(N3C(=O)OCC3C(F)F)nc1-2)C(N)=O , is recorded viability, T/C strictly lower than 90%?
Output line: label 1

Input line: Same question for C=CC(=O)N1CCN(c2nc(=O)n(-c3c(C)ccnc3C(C)C)c3nc(-c4c(O)cccc4F)c(F)cc23)C(C)C1 (stereo not given) + CC(Nc1ccc2c(c1)OCCn1cc(N3C(=O)OCC3C(F)F)nc1-2)C(N)=O please.
Output line: label 0

Input line: Same question for CC1(C)CCC(CN2CCN(c3ccc(C(=O)NS(=O)(=O)c4ccc(NCC5CCOCC5)c([N+](=O)[O-])c4)c(Oc4cnc5[nH]ccc5c4)c3)CC2)=C(c2ccc(Cl)cc2)C1 + CC(Nc1ccc2c(c1)OCCn1cc(N3C(=O)OCC3C(F)F)nc1-2)C(N)=O please.
Output line: label 1

Data origin: PubChem BioAssay AID1963980
